Experiment: viability rescue of complex I mutant cybrids, primary screen, cell-based, galactose medium, ATP luminescence (AID 1645843);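 note: positive z means more ATP and so rescue of galactose-driven cybrid death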
Conditions: complex I mutant cybrid cells, 72 h, stronger effect = higher value
Measured metric: z-score
// no unit, no text: just the number

> print(dat)
                                   molecule  assay.value
1  COP(=O)(OC)OC(c1ccc(Cl)cc1)P(=O)(OC)OC (stereo not given)       -0.085

z-score for `C[C@]12CCC(=O)C=C1CC[C@@H]1[C@@H]2CC[C@@]2(C)[C@H]1CC[C@]2(O)C(=O)CO` is 0.435

Sure, the documented z-score for `CCCCOc1cc(C(=O)OCCN(CC)CC)ccc1N` is 0.26

Lookup result for `CCC(CC)(CC(=O)Nc1cccc(/C=C/c2nc(C3CCC3)cs2)c1)C(=O)O` ; measured z-score: 2.4

Measured z-score, `CCN(CC)CCNC(=O)c1c(C)[nH]c(/C=C2\C(=O)Nc3ccc(F)cc32)c1C` : -1

Documented z-score of Nc1nc(NCC2CCC(CNS(=O)(=O)c3cccc4ccccc34)CC2)nc2ccccc12 (stereo not given) : -0.705

`C[N+](C)(C)CC[N+]1(C)Cc2c(Cl)c(Cl)c(Cl)c(Cl)c2C1` yielded z-score of 0.045

----------
Target: Mitogen-activated protein kinase 7 (Homo sapiens) (UniProt Q13164)
Sequence (Q13164 whole entry, looked up, the tested form may be a part): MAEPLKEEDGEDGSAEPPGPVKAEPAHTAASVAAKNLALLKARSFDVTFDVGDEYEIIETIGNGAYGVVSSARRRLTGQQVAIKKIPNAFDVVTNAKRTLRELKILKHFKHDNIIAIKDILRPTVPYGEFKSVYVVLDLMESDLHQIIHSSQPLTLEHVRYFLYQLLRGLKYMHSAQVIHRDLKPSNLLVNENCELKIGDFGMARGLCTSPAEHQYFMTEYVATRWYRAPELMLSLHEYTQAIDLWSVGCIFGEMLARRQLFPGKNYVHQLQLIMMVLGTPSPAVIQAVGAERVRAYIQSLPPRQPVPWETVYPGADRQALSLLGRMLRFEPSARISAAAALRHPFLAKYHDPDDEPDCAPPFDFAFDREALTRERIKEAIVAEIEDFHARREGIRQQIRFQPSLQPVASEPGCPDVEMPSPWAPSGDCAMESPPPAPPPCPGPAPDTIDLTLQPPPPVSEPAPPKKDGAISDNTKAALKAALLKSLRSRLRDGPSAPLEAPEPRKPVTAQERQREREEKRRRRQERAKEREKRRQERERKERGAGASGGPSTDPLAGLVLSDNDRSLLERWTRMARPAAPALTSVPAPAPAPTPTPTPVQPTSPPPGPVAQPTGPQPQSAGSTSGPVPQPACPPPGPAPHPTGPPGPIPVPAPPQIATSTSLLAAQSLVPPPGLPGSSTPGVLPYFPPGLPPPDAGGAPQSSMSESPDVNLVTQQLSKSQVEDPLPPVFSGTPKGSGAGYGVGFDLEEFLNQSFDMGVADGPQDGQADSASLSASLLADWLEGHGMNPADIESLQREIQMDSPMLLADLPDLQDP
Assay: ERK5 transactivation activators in reporter cells, primary screen, cell-based, HTS (AID 1508626);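 note: luciferase driven by Gal4-ERK5 fusion binding five Gal4 sites before minimal TATA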
Details: HeLa Gal4-ERK5 transactivation, 18 h, at 5 µM, stronger effect = higher value
The source made the active and inactive calls.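 How the source made its calls: active means luciferase signal above three times the same-plate solvent-only control wells; inactive means the rest.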
Measured metric: luciferase signal

The cases that follow already have their luciferase signal on record.
> print(dat)
                                   molecule       assay.value
1  CC(C)=CC1C(C(=O)O)C1(C)C (stereo not given)  44 AU (inactive)
2  CC[C@H](CC[C@@H](C)[C@H]1CC[C@H]2[C@@H]3CC=C4C[C@@H](OC(C)=O)CC[C@]4(C)[C@H]3CC[C@]12C)C(C)C  36 AU (inactive)
3  CC(=O)OC1CC2C(C)(C)C(=O)CCC2(C)C2CCC3(C)C(c4ccoc4)OC(=O)C4OC43C12C (stereo not given)  20 AU (inactive)
4              CC(=O)N=c1sc(S(N)(=O)=O)nn1C  80 AU (inactive)
5        C=C(C)[C@H]1COc2cc3oc(=O)ccc3cc2O1  44 AU (inactive)

Turning to the following molecule.
CC(C)(C(=O)O)c1ccc(C(O)CCCN2CCC(C(O)(c3ccccc3)c3ccccc3)CC2)cc1 (stereo not given) has a reported luciferase signal of 40 AU (inactive)

----------
Assay: differential killing of epithelial or mesenchymal cells, primary screen, imaging, PC-3E GFP, TEM4-18 mCherry, co-culture (AID 1345086);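 note: cells exposed to compound for 72 h before imaging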;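 for red/green cell ratio (normalised): normalised mesenchymal count divided by normalised epithelial count so high means epithelial killing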
Conditions: imaging cell counts, at 1 µM, actives lie on both sides, counts scaled to control wells, 1 = unselective
Rule: red/green cell ratio (normalised) below 1 gives true (1). Equal to or above 1 gives false (0).

Some entries whose results are on file:
Compound	Label class
COc1ccc(O)cc1	false (0)
CCCCNc1ccc(C(=O)OCCOCCOCCOCCOCCOCCOCCOCCOCCOC)cc1	false (0)

Threshold test, red/green cell ratio (normalised) < 1: CC1NC(=O)NC1=O (centres undefined)
true (1)

----------
Experiment: differential killing of epithelial or mesenchymal cells, primary screen, imaging, PC-3E GFP, TEM4-18 mCherry, co-culture (AID 1345086);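 note: cells exposed to compound for 72 h before imaging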
Conditions: imaging cell counts, measured here: epithelial PC-3E GFP cell survival, at 1 µM
Listing: normalised cell number of selected molecules

Molecule	Assay value
NC(N)=O	1.22
COc1c2ccoc2cc2oc(=O)ccc12	1.1
CN(C)C(=N)N=C(N)N	1.31
CCOc1nc2cccc(C(=O)O)c2n1Cc1ccc(-c2ccccc2-c2nn[nH]n2)cc1	1.08
Cn1c(=O)[nH]c(=O)c2[nH]cnc21	1.22

Documented normalised cell number of C=Cc1c(C)/c2[n-]/c1=C\c1[n-]c(c(CC)c1C)/C=c1\[n-]c3c(c1C)C(=O)C(C(=O)[O-])C=3c1[n-]c(c(C)c1CCC(=O)[O-])\C=2.[Cu].[Na+].[Na+] (centres undefined) : 1.03

Data point: CCC(c1ccc(O)cc1)C(CC)c1ccc(O)cc1 (centres undefined) ; normalised cell number = 1.08

`CCCc1nn(C)c2c(=O)[nH]c(-c3cc(S(=O)(=O)N4CCN(C)CC4)ccc3OCC)nc12` has a reported normalised cell number of 1.05

Quick note, normalised cell number for `CC(C)(C)CC(C)(C)c1cc(Cc2cc(C(C)(C)CC(C)(C)C)cc(-n3nc4ccccc4n3)c2O)c(O)c(-n2nc3ccccc3n2)c1` landed at 1.28

Form field normalised cell number, entry `COC(=O)c1c(C)c2c(c(C)c1O)OC(=O)c1c(C)c(Cl)c(O)c(Cl)c1O2` : 1.03

According to the records, this molecule `Cc1ccc(N(CC2=NCCN2)c2cccc(O)c2)cc1` displays normalised cell number of 0.96

Input `COc1cc(-c2coc3cc(OCc4ccccc4)c(OC)c(O)c3c2=O)cc(OCc2ccccc2)c1OC` . Output normalised cell number: 1.05

normalised cell number for OC1C(O)C(O)C(O)C(O)C1O (centres undefined) is 0.97

The molecule listed as `COC1=CC(=O)C(C(=O)c2ccccc2)=CC1=O` shows normalised cell number equal to 1.01

----------
Assay: CellTiter-Glo luminescent readout of SW480 viability loss, NPC library primary (AID 1117343)
Details: CellTiter-Glo luminescence; at 20 µM (top of the series) unless noted
Measured metric: viability decrease (inhibition) (%)
Quick note: give the figure in %, leave out the unit.

Compound	Assay value
O=C1Cc2cc(CCN3CCN(c4nsc5ccccc45)CC3)c(Cl)cc2N1	91.1

The value of viability decrease (inhibition) measured for the compound Cc1cc2c(OCC(CNC(C)(C)C)OC(=O)c3ccccc3)cccc2[nH]1 (centres undefined) turned out to be -10.4

Record `Nc1ccn(C[C@@H](CO)OCP(=O)(O)O)c(=O)n1` , field viability decrease (inhibition): 109

`CC[C@]1(O)C[C@H]2CN(CCc3c([nH]c4ccccc34)[C@@](C(=O)OC)(c3cc4c(cc3OC)N(C=O)[C@H]3[C@@](O)(C(=O)OC)[C@H](OC(C)=O)[C@]5(CC)C=CCN6CC[C@]43[C@@H]65)C2)C1` has a reported viability decrease (inhibition) of 56

----------
Target: ATP-dependent translocase ABCB1 (Homo sapiens)
Assay: MDR1 (ABCB1) efflux transporter inhibition, cell-based (AID 377)
Details: MDR1-expressing cells, fluorescent substrate accumulation slope; concentration not given here
Inconclusive results are not listed. Active and inactive are the calls of the source. No stated cut-off is given here; in the data, active means fluorescence slope change above about 50%; inconclusive means mostly about 31% to 49%; inactive means weaker than that.
Could you please pick one outcome from this set? yes = active, no = inactive

Record excerpt, results attached:
Molecule	Label class
O=C(O)c1cn(C2CC2)c2cc(N3CCNCC3)c(F)cc2c1=O	yes
CNC1C(O)C(OC2C(N)CC(N)C(OC3OC(CN)=CCC3N)C2O)OCC1(C)O (stereo not given)	no
NC(N)=NCCCCN=C(N)N	yes

Look up the recorded call for CCOc1ccccc1OCC1CNCCO1 (stereo not given) in this test.
yes

Which outcome was entered for the molecule `Clc1ccc(Cn2c(CN3CCCC3)nc3ccccc32)cc1` in this test?
yes

Each molecule tested received a call. Report the one for `CC(C)C[C@H]1C(=O)N2CCC[C@H]2[C@]2(O)O[C@](NC(=O)[C@@H]3C=C4c5cccc6[nH]c(Br)c(c56)C[C@H]4N(C)C3)(C(C)C)C(=O)N12` .
yes

Could you kindly confirm the outcome this assay logged for `Cc1cccc(C)c1NC(=O)CN1CCN(CCCC(c2ccc(F)cc2)c2ccc(F)cc2)CC1` ?
yes

Outcome logged for `CCN(CC)C(=O)c1ccc(O)c(OC)c1` in this assay:
yes

Hi team, can someone confirm the assay call for `CC/C(=C(\c1ccccc1)c1ccc(OCCN(C)C)cc1)c1ccccc1` ?
yes

Hi team, can someone confirm the assay call for CO[C@@H]1[C@@H](OC2OC(C)C(OC3CC(C)(O)C(O)C(C)O3)C(N(C)C)C2O)[C@@H](CC=O)C[C@@H](C)[C@@H](OC2CCC(N(C)C)C(C)O2)/C=C/C=C/C[C@@H](C)OC(=O)C[C@H]1O (stereo not given in full) ?
no

Hi, do you know how CCCCN1CCCCC1C(=O)Nc1c(C)cccc1C (stereo not given) came out in this test?
no

Recorded test outcome, item CN(C)CCC(c1ccc(Cl)cc1)c1ccccn1 (stereo not given)
yes

Recorded test outcome, item `C(=C\c1ccccc1)/CN1CCN(C(c2ccccc2)c2ccccc2)CC1`
yes

----------
Measured fold change values are reported for all entries that follow.
Experiment: sensitizers of A549 cells to miR-34 induction, primary screen, imaging, A549 dox-inducible miR-34, nuclei and caspase counts (AID 1347080)
Details: A549 miR-34 inducible, Hoechst nuclei count, 48 h; stronger effect = lower value; cell number ratio, induced over uninduced
Enter a number only.

Some compounds with recorded fold change:
Test smiles	Assay value
CC(C)(C)CC(C)(C)c1cc(Cc2cc(C(C)(C)CC(C)(C)C)cc(-n3nc4ccccc4n3)c2O)c(O)c(-n2nc3ccccc3n2)c1	0.928
CC(=O)N[C@@H](Cc1ccccc1)C(=O)O	0.922
CN1CCN(C2=Nc3ccccc3Sc3ccc(Cl)cc32)CC1	0.882
Cc1cc2c(cc1CC(=O)c1sccc1S(=O)(=O)Nc1onc(C)c1Cl)OCO2	0.871
COc1ccc(-c2cc(=O)c3c(OC)c(OC)c(OC)c(OC)c3o2)cc1	0.921
NCCCCN=C(N)N	1.06
CC(=O)NCc1c(I)c(NC(C)=O)c(I)c(C(=O)O)c1I	0.851
CN[C@@H]1[C@@H](O[C@H]2O[C@H](CO)[C@@H](N)[C@H](O)[C@H]2O)O[C@H]2C[C@@H](N)[C@@H](O[C@H]3[C@H](O)[C@@H](O)[C@H](N)C[C@@H]3N)O[C@@H]2[C@@H]1O	0.906
O=C(O)CP(=O)(O)O	0.969
CCCCC(=O)O[C@H]1CC[C@H]2[C@@H]3CCc4cc(O)ccc4[C@H]3CC[C@]12C	1

Then this compound:
Entry under test: `O=C(O)c1ccc(-n2nc(-c3ccccc3O)nc2-c2ccccc2O)cc1` . Its fold change was 0.936
